Recorded measurements of MIC, one per entry
- Test system: Enterococcus faecium
- PROCEDURE TEXT: Minimum inhibitory concentration against glycopeptide susceptible enterococci 568 Enterococcus faecium
- Format: functional

| MOLECULE | MIC |
| --- | --- |
| NC(=O)C[C@@H]1NC(=O)[C@H](N)[C@H](O)c2ccc(c(Cl)c2)Oc2cc3cc(c2O)Oc2ccc(cc2Cl)[C@@H](O)[C@@H]2NC(=O)[C@H](NC(=O)[C@@H]3NC1=O)c1ccc(O)c(c1)-c1c(O)cc(O)cc1[C@@H](C(=O)O)NC2=O | > 128 µg/mL |
| CN[C@H](CC(C)C)C(=O)N[C@H]1C(=O)N[C@@H](CC(N)=O)C(=O)N[C@H]2C(=O)N[C@H]3C(=O)N[C@H](C(=O)N[C@H](C(=O)NC4C5CC6CC(C5)CC4C6)c4cc(O)cc(O)c4-c4cc3ccc4O)[C@H](O)c3ccc(c(Cl)c3)Oc3cc2cc(c3O)Oc2ccc(cc2Cl)[C@H]1O (some centres not stated) | 2 µg/mL |
| CN[C@H](CC(C)C)C(=O)N[C@H]1C(=O)N[C@@H](CC(N)=O)C(=O)N[C@H]2C(=O)N[C@H]3C(=O)N[C@H](C(=O)N[C@H](C(=O)NCC45CC6CC(CC(C6)C4)C5)c4cc(O)cc(O)c4-c4cc3ccc4O)[C@H](O)c3ccc(cc3)Oc3cc2cc(c3O)Oc2ccc(cc2)[C@H]1O | 4 µg/mL |
| NC(=O)C[C@@H]1NC(=O)[C@H](N)[C@H](O)c2ccc(c(Cl)c2)Oc2cc3cc(c2O)Oc2ccc(cc2Cl)[C@@H](O)[C@@H]2NC(=O)[C@H](NC(=O)[C@@H]3NC1=O)c1ccc(O)c(c1)-c1c(O)cc(O)cc1[C@@H](C(=O)NCC13CC4CC(CC(C4)C1)C3)NC2=O | > 64 µg/mL |
| CN[C@H](CC(C)C)C(=O)N[C@H]1C(=O)N[C@@H](CC(N)=O)C(=O)N[C@H]2C(=O)N[C@H]3C(=O)N[C@H](C(=O)N[C@H](C(=O)NC4C5CC6CC(C5)CC4C6)c4cc(O)cc(O)c4-c4cc3ccc4O)[C@H](O)c3ccc(cc3)Oc3cc2cc(c3O)Oc2ccc(cc2)[C@H]1O (some centres not stated) | 8 µg/mL |
| CN[C@H](CC(C)C)C(=O)N[C@H]1C(=O)N[C@@H](CC(N)=O)C(=O)N[C@H]2C(=O)N[C@H]3C(=O)N[C@H](C(=O)N[C@H](C(=O)O)c4cc(O)cc(O)c4-c4cc3ccc4O)[C@H](O)c3ccc(cc3)Oc3cc2cc(c3O)Oc2ccc(cc2)[C@H]1O | 32 µg/mL |
| NC(=O)C[C@@H]1NC(=O)[C@H](N)[C@H](O)c2ccc(cc2)Oc2cc3cc(c2O)Oc2ccc(cc2)[C@@H](O)[C@@H]2NC(=O)[C@H](NC(=O)[C@@H]3NC1=O)c1ccc(O)c(c1)-c1c(O)cc(O)cc1[C@@H](C(=O)NCC13CC4CC(CC(C4)C1)C3)NC2=O | > 64 µg/mL |

* * *

- Test system: L1210
- PROCEDURE TEXT: Cytostatic activity against L1210 cell line
- Assay type: functional, cell-based
- TEST SETTINGS: Mus musculus
Recorded measurements of IC50, one per entry

| COMPOUND | IC50 |
| --- | --- |
| CN[C@H](CC(C)C)C(=O)N[C@H]1C(=O)N[C@@H](CC(N)=O)C(=O)N[C@H]2C(=O)N[C@H]3C(=O)N[C@H](C(=O)N[C@H](C(=O)O)c4cc(O)cc(O)c4-c4cc3ccc4O)[C@H](O)c3ccc(cc3)Oc3cc2cc(c3O)Oc2ccc(cc2Cl)[C@H]1O | > 500 µM |
| CN[C@H](CC(C)C)C(=O)N[C@H]1C(=O)N[C@@H](CC(N)=O)C(=O)N[C@H]2C(=O)N[C@H]3C(=O)N[C@H](C(=O)N[C@H](C(=O)NCC45CC6CC(CC(C6)C4)C5)c4cc(O)cc(O)c4-c4cc3ccc4O)[C@H](O)c3ccc(c(Cl)c3)Oc3cc2cc(c3O)Oc2ccc(cc2Cl)[C@H]1O | ≥ 250 µM |
| CN[C@H](CC(C)C)C(=O)N[C@H]1C(=O)N[C@@H](CC(N)=O)C(=O)N[C@H]2C(=O)N[C@H]3C(=O)N[C@H](C(=O)N[C@H](C(=O)NC4C5CC6CC(C5)CC4C6)c4cc(O)cc(O)c4-c4cc3ccc4O)[C@H](O)c3ccc(cc3)Oc3cc2cc(c3O)Oc2ccc(cc2Cl)[C@H]1O (some centres undefined) | > 250 µM |
| CN[C@H](CC(C)C)C(=O)N[C@H]1C(=O)N[C@@H](CC(N)=O)C(=O)N[C@H]2C(=O)N[C@H]3C(=O)N[C@H](C(=O)N[C@H](C(=O)NC4C5CC6CC(C5)CC4C6)c4cc(O)cc(O)c4-c4cc3ccc4O)[C@H](O)c3ccc(c(Cl)c3)Oc3cc2cc(c3O)Oc2ccc(cc2Cl)[C@H]1O (some centres undefined) | ≥ 250 µM |
